From: PubChem BioAssay AID1259418

In this section we review reported max activity values for a set of compounds.
Assay: inhibitors of Toxoplasma growth in IFN-γ-primed HeLa – cell-based, ME49Luc, luciferase, 72 h, dose response (AID 1259418)
Details: T. gondii ME49Luc in IFN-y HeLa, stronger effect = lower value, -100% = high-dose IFN-γ control wells; at 19.5 µM unless noted
In all, about 3,400 compounds went through this assay and about 840 (25%) were called active. Another 11% or so got no clear call; they are omitted. Not all results are given here. Measured potencies and affinities stand elsewhere.

Worked cases, answers included:
1) Cc1cc(C2CCCN2C(=O)Cn2nc(C(F)(F)F)cc2C)on1 (stereo not given); 9.62% [at 0.16 µM] (inactive)
2) Cc1ccc(-c2coc(-c3ccc(NC(=O)C(C)(C)C)cc3)n2)cc1; 29.4% [at 10 µM] (inactive)
3) Cc1ccc2c(c1C)-n1cccc1C1(CCN(C(=O)CC3CCCCC3)CC1)N2; -13.7% [at 0.16 µM] (inactive)
4) COc1ccc(NC(=O)Nc2ccc(-c3nc(-c4ccccc4)co3)cc2)c(OC)c1; 53.6% [at 10 µM] (inactive)
5) O=C(NCCc1csc(-c2ccccc2)n1)[C@H]1CCCN1C(=O)c1ccccc1Br; -16.7% [at 0.16 µM] (inactive)

What measured max activity goes with "O=C(NCCc1csc(-c2ccccc2)n1)[C@H]1CCCN1S(=O)(=O)c1cccc(F)c1" ?
-25.4% [at 1.35 µM] (inactive)

What measured max activity goes with "CCCn1c(=S)[nH]c2cc(C(=O)N3CCC(O)(c4cccc(C(F)(F)F)c4)CC3)ccc2c1=O" ?
18.8% [at 0.16 µM] (inactive)

What measured max activity goes with "COc1ccc(-c2ccc([C@@H]3[C@@H](CO)N4C(=O)CN(Cc5ccccc5)C[C@H]34)cc2)cc1" ?
18% [at 10 µM] (inactive)

What measured max activity goes with "COc1ccc(-c2nc3c(s2)CN(S(=O)(=O)c2ccc(C)cc2)CC3)cc1" ?
9.64% [at 10 µM] (inactive)

What measured max activity goes with "Cc1c(S(=O)(=O)N2CCC[C@@H]2C(=O)NCCc2csc(-c3ccccc3)n2)cnn1C(F)F" ?
5.67% [at 2.6 µM] (inactive)

What measured max activity goes with CCc1c(C)sc2c1CCN(Cc1nc(-c3ccc(Cl)cc3)oc1C)C2c1ccccc1 (stereo not given) ?
38.9% [at 10 µM] (inactive)
